# tgt: Cytochrome P450 1A2 (Homo sapiens) (UniProt P05177)
# Sequence (P05177 whole entry, looked up): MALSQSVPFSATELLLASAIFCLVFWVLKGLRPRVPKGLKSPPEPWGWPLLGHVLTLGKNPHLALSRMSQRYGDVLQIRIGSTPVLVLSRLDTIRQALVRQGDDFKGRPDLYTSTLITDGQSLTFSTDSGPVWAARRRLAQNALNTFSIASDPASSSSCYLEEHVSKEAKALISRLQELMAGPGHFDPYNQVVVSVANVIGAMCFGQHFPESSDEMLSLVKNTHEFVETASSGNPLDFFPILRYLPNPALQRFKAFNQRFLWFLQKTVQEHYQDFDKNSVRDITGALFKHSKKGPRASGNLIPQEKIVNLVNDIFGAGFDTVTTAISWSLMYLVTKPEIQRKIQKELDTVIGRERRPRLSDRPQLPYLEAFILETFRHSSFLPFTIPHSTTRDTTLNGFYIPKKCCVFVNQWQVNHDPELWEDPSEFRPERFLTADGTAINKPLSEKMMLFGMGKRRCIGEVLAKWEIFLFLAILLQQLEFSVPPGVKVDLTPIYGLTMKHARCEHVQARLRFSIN
# measurementNotes: Cytochrome panel assay with activity outcomes
# assayConditions: recombinant CYP, pro-luciferin dealkylation, luminescence, p450-cyp1a2; series mostly up to 57.1 µM
About 5,700 (36%) of roughly 16,000 compounds were called active. Another 24% or so got no clear call; they are omitted. Calls follow the shape of the dose curve; as a rule, active = well fitted curve in the direction sought with a large enough effect; inconclusive = small, poorly fitted or top-dose-only effect, or effect the other way; inactive = no such curve, though single readings can be large or run the other way. Some of the results follow.
Classes used: active, inactive

# compound, discreteLabel
rows = [
    ("Cc1ccc(-c2nc3ccccc3c(=O)n2-c2ncccc2C)cc1", "inactive"),
    ("CN1CC[C@@]2(CCCN(C(=O)Oc3ccccc3)C2)C1", "inactive"),
    ("COc1ccc2[nH]cc(C3=CCNCC3)c2c1", "active"),
    ("C=C(C)CN1CC[C@@]23c4c5ccc(O)c4O[C@H]2c2[nH]c4ccccc4c2C[C@]3(O)[C@@H]1C5", "inactive"),
    ("C[C@]12N[C@@H](Cc3ccccc31)c1ccccc12", "inactive"),
    ("CC(=O)O[C@H]1C[C@@H](O[C@@H]2[C@H](C)O[C@H](O[C@@H]3[C@H](C)O[C@H](O[C@@H]4CC[C@@]5(C)[C@@H](CC[C@]6(C)[C@]5(C)C[C@H](O)[C@]5(C)[C@@H](C7=CC(=O)OC7)CC[C@@]56O)C4)C[C@@H]3O)C[C@@H]2O)O[C@@H](C)[C@H]1O[C@H]1O[C@@H](CO)[C@@H](O)[C@@H](O)[C@@H]1O", "inactive"),
    ("CC[C@@H](CO)Nc1nc(NCc2ccccc2)c2ncn(C(C)C)c2n1", "active"),
    ("CN1[C@@H]2CC[C@H]1CC(NC(=O)c1nn(C)c3ccccc13)C2 (stereo partly drawn)", "inactive"),
    ("CCCc1nc2ccccc2c(=O)n1-c1ccc(OC)cc1", "active"),
    ("CCC1(C)CC(=O)NC(=O)C1", "inactive"),
    ("CCn1c(O)c(C(c2ccccn2)c2c(O)n(CC)c(=S)[nH]c2=O)c(=O)[nH]c1=S", "inactive"),
    ("CC(C)[C@@]1(NC(=O)[C@@H]2C[C@H]3c4cccc5[nH]cc(c45)C[C@@H]3N(C)C2)O[C@]2(O)[C@H]3CCCN3C(=O)[C@H](Cc3ccccc3)N2C1=O", "inactive"),
    ("C[C@H](NC(C)(C)C)C(=O)c1cccc(Cl)c1", "inactive"),
    ("CC(C)[C@H](CO)Nc1nc(Nc2cccc(Cl)c2)c2ncn(C(C)C)c2n1", "active"),
    ("C[C@@]12CC[C@H](O)C[C@@H]1CC[C@H]1[C@H]2CC[C@@]2(C)[C@@H](C3=CC(=O)OC3)CC[C@]12O", "inactive"),
    ("O=c1ccc2[nH]cc(C3=CCNCC3)c2[nH]1", "inactive"),
    ("COCCCN1CCN(c2nnc3n2-c2sc(Br)cc2C(c2ccccc2Cl)=NC3)CC1", "inactive"),
    ("CC[C@@H]1CN2CCc3cc(OC)c(OC)cc3[C@H]2C[C@@H]1C[C@@H]1NCCc2cc(O)c(OC)cc21", "inactive"),
]
